Target: h FPR2 (Homo sapiens)
Assay: Agonistic activity in hFPR2-Aq-CHO cells (FLIPR Calcium 5 fluorescence assay)
Details: 11 point half log dilution, final assay concentration from 10µM
METRIC: EC50 (nM)

COc1ccc([C@@H]2CN(C(=O)c3ccc(C)nc3)CC[C@H]2NC(=O)Nc2ccc(C#N)cc2)nc1 (relative stereo); 5
COc1cnc([C@@H]2CN(CC3COC3)CC[C@H]2NC(=O)Nc2ccc(Cl)cc2)c(F)c1 (relative stereo); 0.4
COc1ccc([C@@H]2CN(C3COC3)CC[C@H]2NC(=O)Nc2cc(C)ns2)nc1 (relative stereo); 13
COCCCN1CC[C@@H](NC(=O)Nc2ccc(Cl)cc2)[C@H](c2ccc(Cl)s2)C1 (relative stereo); 11
COc1ccc([C@@H]2CN(C(=O)C3CC(O)C3)CC[C@H]2NC(=O)Nc2cc(C)ns2)nc1 (single isomer, unassigned) [Ex-138]; 7

I: Cc1ncc(CN2CC[C@@H](NC(=O)Nc3ccc(Cl)cc3)[C@H](c3ccc(Cl)s3)C2)cn1 (relative stereo)
II: COc1ccc([C@@H]2CN(CC3CC(C)(O)C3)CC[C@H]2NC(=O)Nc2ccc(Cl)cc2)nc1 (relative stereo)
III: COc1cnc([C@@H]2CN(CC(C)(C)O)CC[C@H]2NC(=O)Nc2ccc(Cl)cc2)c(F)c1 (relative stereo)
IV: Cc1cc(CN2CC[C@@H](NC(=O)Nc3ccc(Cl)cc3)[C@H](c3ccc(Cl)s3)C2)no1 (single isomer, unassigned)
V: Cc1cc(NC(=O)N[C@@H]2CCN(c3ccnc(C(F)(F)F)n3)C[C@H]2c2ccc(Cl)cn2)sn1 (relative stereo)
Request: Please produce an ascending ranking of these molecules based on EC50. Answer by listing the labels in the order asked for.
Response: III, IV, I, II, V
(III: 0.7 nM, IV: 1 nM, I: 2 nM, II: 9 nM, V: 17 nM)

* * *

Target: h FPR2 (Homo sapiens, UniProt P25090)
Construct: expressed in transfected cells
Sequence (P25090 1-351): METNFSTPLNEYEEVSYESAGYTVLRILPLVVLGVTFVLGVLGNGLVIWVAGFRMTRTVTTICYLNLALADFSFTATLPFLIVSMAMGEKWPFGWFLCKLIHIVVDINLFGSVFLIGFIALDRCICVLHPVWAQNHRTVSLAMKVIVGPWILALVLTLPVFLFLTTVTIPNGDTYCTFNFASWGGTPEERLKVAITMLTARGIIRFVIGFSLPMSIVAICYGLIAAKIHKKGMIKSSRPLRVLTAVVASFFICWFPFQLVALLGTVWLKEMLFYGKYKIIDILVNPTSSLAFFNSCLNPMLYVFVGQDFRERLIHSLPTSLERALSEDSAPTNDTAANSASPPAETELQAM
Experiment: Agonistic activity in hFPR2-Aq-CHO cells (FLIPR Calcium 5 fluorescence assay)
Format: cell-based
Settings: agonistic response at 0.1µM
METRIC: activation at 0.1 µM (%)

These recorded examples may help you get a feel for the data.
COCCC(=O)N1CC[C@@H](NC(=O)Nc2ccc(Cl)cc2)[C@H](c2ccc(Cl)s2)C1 (relative stereo); 41
COc1ccc([C@@H]2CN(C(=O)CN(C)C)CC[C@H]2NC(=O)Nc2ccc(Cl)cc2)nc1 (relative stereo); 8

1: COc1ccc([C@@H]2CN(C3CCS(=O)(=O)CC3)CC[C@H]2NC(=O)Nc2cc(C)ns2)nc1 (relative stereo)
2: COc1ccc([C@@H]2CN(Cc3ccn(C)n3)CC[C@H]2NC(=O)Nc2ccc(Cl)cc2)nc1 (relative stereo)
3: Cc1cc(NC(=O)N[C@@H]2CCN(Cc3ncccn3)C[C@H]2c2ccc(Cl)s2)sn1 (relative stereo)
Request: Please produce an ascending ranking of these compounds based on activation at 0.1 µM. Answer by listing the labels in the order asked for.
Response: 2, 1, 3
(2: 10%, 1: 25%, 3: 44%)
